The compounds listed here are annotated with their pIC50.
TESTED_TARGET: human TLR7 (Homo sapiens)
Sequence (Q9NYK1 27-1049): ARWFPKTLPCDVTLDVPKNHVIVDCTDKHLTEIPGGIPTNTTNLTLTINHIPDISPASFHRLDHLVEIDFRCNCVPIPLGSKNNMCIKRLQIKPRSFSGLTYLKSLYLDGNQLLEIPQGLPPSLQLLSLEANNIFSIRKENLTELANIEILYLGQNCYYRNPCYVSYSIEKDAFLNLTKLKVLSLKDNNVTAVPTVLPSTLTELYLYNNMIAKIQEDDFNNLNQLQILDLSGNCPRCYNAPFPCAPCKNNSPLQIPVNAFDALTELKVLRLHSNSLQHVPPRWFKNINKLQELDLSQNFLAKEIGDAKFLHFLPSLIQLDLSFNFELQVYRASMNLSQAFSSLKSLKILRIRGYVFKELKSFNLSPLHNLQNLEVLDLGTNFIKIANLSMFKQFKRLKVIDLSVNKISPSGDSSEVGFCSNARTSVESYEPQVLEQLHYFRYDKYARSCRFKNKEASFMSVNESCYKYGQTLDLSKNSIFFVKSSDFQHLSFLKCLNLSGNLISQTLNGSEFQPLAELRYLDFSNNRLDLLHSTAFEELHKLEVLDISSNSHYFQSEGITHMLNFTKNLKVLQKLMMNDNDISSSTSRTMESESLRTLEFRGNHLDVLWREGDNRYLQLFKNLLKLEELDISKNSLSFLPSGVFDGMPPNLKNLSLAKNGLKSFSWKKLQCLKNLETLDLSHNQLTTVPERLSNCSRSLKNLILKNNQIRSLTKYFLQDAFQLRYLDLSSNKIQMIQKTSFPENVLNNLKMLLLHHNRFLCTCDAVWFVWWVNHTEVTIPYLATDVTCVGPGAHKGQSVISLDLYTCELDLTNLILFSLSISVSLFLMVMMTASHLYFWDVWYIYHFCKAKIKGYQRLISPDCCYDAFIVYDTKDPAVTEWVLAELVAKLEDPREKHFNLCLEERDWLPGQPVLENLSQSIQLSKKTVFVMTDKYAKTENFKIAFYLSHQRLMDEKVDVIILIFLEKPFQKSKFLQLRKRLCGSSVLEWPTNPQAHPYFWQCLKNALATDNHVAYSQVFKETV
METHOD_NOTES: TLR7 inhibition reporter assay (HEK-Blue cells, SEAP reporter, gardiquimod stimulation)
REPORTED_CONDITIONS: HEK-Blue cells overexpressing human TLR7, gardiquimod 7.5 μM
// pIC50: -log10(molar conc.)

Here's what some known entries look like.
CCOC(=O)c1c(C)[nH]c(CN2CCC(N3CCC(c4ccc5[nH]c(-c6ccc(OC)c(OC)c6)c(CC)c5c4)CC3)CC2)c1C ... 5.79
CCc1c(-c2ccc(OC)c(OC)c2)[nH]c2ccc(C3CCN(C(=O)CN(C)C)CC3)cc12 ... 7.28

Could you now look at the following compound, please?
-- ask Quickly give me recorded pIC50 for COc1ccc(-c2[nH]c3ccc(C4CCN(C(=O)CN5CCCN(C)CC5)CC4)cc3c2C(C)C)cc1OC
-- reply 7.96
